- method: Tumour pharmacokinetics (released and total AZD4320) in RS4;11 tumours
- Format: in vivo, C.B-17 SCID mouse
- assay_conditions: female, C.B-17 SCID, mouse, tumour (RS4;11 xenograft), intravenous, 10 mg/kg, RS4;11, single dose 10 mg/kg or equivalent; 0.5 h; read-out: Tumor PK released AZD4320, individual tumours

compound	concentration at 0.5 h
CN(CCO)CCC(CSc1ccccc1)Nc1ccc(S(=O)(=O)NC(=O)c2ccc(N3CCC(C(O)c4ccccc4-c4ccc(Cl)cc4)CC3)cc2)cc1S(=O)(=O)C(F)(F)F (stereo not shown)	1360 ng/g

* * *

- method: Plasma pharmacokinetics after IV bolus in C.B-17 SCID mouse
- Type: in vivo
- assay_conditions: female, C.B-17 SCID, mouse, plasma, iv, 5 mg/kg, mouse IV, AZD4320 dosed at 5 mg/kg; 0.05 hr; read-out: Concentration AZD4320 in Plasma, individual animals
parameter_measured: concentration at 0.05 h

compound	result
CN(CCO)CCC(CSc1ccccc1)Nc1ccc(S(=O)(=O)NC(=O)c2ccc(N3CCC(C(O)c4ccccc4-c4ccc(Cl)cc4)CC3)cc2)cc1S(=O)(=O)C(F)(F)F (stereo not shown) [AZD4320]	13900 ng/mL

* * *

- method: in vivo
- assay_conditions: beagle, dog
parameter_measured: MTD at 48 h

compound	result
CN(CCO)CCC(CSc1ccccc1)Nc1ccc(S(=O)(=O)NC(=O)c2ccc(N3CCC(C(O)c4ccccc4-c4ccc(Cl)cc4)CC3)cc2)cc1S(=O)(=O)C(F)(F)F (stereo not shown)	< 3 mg/kg

* * *

- method: Plasma pharmacokinetics after IV bolus in C.B-17 SCID mouse
- Type: in vivo
- assay_conditions: female, C.B-17 SCID, mouse, plasma, intravenous, 5 mg/kg, mouse IV, dosed at 5 mg/kg; 2 hr; read-out: Concentration AZD4320 in Plasma, Dose Adjusted to 10 mg/kg

molecule	concentration at 2 h [ng/mL]
CN(CCO)CCC(CSc1ccccc1)Nc1ccc(S(=O)(=O)NC(=O)c2ccc(N3CCC(C(O)c4ccccc4-c4ccc(Cl)cc4)CC3)cc2)cc1S(=O)(=O)C(F)(F)F (stereo not shown)	150

* * *

- method: Formulation dependent plasma and tumour pharmacokinetics of AZD4320 (Fig S2b)
- Assay type: in vivo
- assay_conditions: C.B-17 SCID, mouse, tumour, iv, 5 mg/kg, Tumor, 6 h, 5 mg/kg IV, 30% HPbCD, study CIV-11-055

compound	value_units	concentration at 6 h
CN(CCO)CCC(CSc1ccccc1)Nc1ccc(S(=O)(=O)NC(=O)c2ccc(N3CCC(C(O)c4ccccc4-c4ccc(Cl)cc4)CC3)cc2)cc1S(=O)(=O)C(F)(F)F (stereo not shown) [AZD4320]	nM	312

* * *

- method: Plasma pharmacokinetics after IV bolus in C.B-17 SCID mouse
- Assay type: in vivo
- assay_conditions: female, C.B-17 SCID, mouse, plasma, iv, 5 mg/kg, mouse IV, AZD4320 dosed at 5 mg/kg; 0.5 hr; read-out: Concentration AZD4320 in Plasma, Mean

compound	value_units	concentration at 0.5 h
CN(CCO)CCC(CSc1ccccc1)Nc1ccc(S(=O)(=O)NC(=O)c2ccc(N3CCC(C(O)c4ccccc4-c4ccc(Cl)cc4)CC3)cc2)cc1S(=O)(=O)C(F)(F)F (stereo not shown) [AZD4320]	ng/mL	977
